These data points were gathered from patent US20160244745A1.

# Test system: Goat IgG
# Experimental details: yeast display titration; KD, yeast
Reported metric: Kd

Binder: KFWATVYDYDADYYFEVPVYAETLDEALELAVWRYYSNHSDYLVTRVRP (designed binder) [Goat IgG 2.2.1]
Reported metric: Kd
Result: 0.2 nM
